- System Under Test: NMDAR2A expressing HEK cell membranes (Homo sapiens, UniProt Q05586+Q12879)
- Construct: expressed in transfected cells; host or cells: HEK cells (membrane extract)
- Sequence (Q12879 23-1464, other chains not shown): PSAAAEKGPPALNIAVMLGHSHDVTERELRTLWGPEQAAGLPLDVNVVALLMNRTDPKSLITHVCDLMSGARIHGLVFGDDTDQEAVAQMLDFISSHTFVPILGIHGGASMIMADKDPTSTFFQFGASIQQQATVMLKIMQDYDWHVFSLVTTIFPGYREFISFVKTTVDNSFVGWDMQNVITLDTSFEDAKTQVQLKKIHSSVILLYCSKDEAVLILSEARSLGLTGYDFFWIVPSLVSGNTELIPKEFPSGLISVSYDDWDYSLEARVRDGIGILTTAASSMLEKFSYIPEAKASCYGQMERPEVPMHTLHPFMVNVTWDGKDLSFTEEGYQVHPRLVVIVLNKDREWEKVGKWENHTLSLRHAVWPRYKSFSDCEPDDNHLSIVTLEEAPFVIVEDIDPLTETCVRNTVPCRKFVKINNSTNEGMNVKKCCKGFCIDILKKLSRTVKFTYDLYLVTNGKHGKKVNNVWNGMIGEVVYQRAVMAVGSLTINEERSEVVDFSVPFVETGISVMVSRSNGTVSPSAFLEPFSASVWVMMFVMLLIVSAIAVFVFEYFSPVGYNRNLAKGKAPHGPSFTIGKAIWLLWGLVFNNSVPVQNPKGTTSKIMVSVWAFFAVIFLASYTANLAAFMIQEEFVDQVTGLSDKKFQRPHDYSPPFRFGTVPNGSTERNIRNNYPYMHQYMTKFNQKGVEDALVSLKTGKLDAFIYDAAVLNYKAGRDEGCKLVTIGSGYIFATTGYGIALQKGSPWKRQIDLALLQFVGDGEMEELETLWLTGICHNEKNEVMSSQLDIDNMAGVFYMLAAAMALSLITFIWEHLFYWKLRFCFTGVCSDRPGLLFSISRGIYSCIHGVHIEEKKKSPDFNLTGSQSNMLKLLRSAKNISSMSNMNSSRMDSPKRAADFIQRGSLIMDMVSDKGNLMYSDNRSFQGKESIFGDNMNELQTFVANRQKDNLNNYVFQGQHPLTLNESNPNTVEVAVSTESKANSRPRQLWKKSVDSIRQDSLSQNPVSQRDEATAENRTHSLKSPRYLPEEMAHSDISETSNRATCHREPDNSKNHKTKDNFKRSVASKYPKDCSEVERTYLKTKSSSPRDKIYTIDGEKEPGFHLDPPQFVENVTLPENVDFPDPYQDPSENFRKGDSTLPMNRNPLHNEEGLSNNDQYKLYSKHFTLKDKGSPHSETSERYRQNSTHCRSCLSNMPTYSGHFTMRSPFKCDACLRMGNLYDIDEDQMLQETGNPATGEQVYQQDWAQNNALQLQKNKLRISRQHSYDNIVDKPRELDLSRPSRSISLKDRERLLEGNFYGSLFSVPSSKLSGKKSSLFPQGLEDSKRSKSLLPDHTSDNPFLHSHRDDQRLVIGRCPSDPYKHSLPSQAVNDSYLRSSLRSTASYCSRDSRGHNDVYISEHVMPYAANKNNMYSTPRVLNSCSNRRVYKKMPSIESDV
- Assay Remarks: NMDAR agonist assay, [3H]MK-801 binding, NMDAR2A
- Type: biochemical
- Protocol Conditions: 50 μM glutamate; read-out: NMDAR2A B: log EC50 (converted)
- Experimental: Assays were conducted as described by Moskal et al., “GLYX-13: a monoclonal antibody-derived peptide that acts as an N-methyl-D-aspartate receptor modulator,” Neuropharmacology, 49, 1077-87, 2005. These studies were designed to determine if the test compounds act to facilitate NMDAR activation in NMDAR2A, NMDAR2B, NMDAR2C or NMDAR2D expressing HEK cell membranes as measured by increases in [^3H]MK-801 binding. […]
Recorded Metric: EC50

| Compound | Result |
| --- | --- |
| COc1ccc(CN2CC3(CCNC(=S)C3)C2=O)cc1 (single isomer, unassigned) | < 1 nM |
| CCN1CCC2(CC1=O)CN(Cc1ccc(OC)cc1)C2=O (single isomer, unassigned) | < 1 nM |
| CC1CC(=O)N(c2ccc(F)cc2)C12CN([C@H](C(N)=O)[C@@H](C)O)C2=O (single isomer, unassigned) [DL] | < 1 nM |
| CC1CC(=O)N(C)C12CN(CC(N)=O)C2=O (single isomer, unassigned) | < 1 nM |
| CC1C(O)C(=O)N(C)C12CN(Cc1ccccc1)C2=O (single isomer, unassigned) [DN] | < 1 nM |
| CN1CCC2(CC1=O)CN(Cc1ccccc1)C2=O (single isomer, unassigned) | < 1 nM |
| COc1ccc(CN2CC3(CCN(C)C(=O)C3)C2=O)cc1 (single isomer, unassigned) | < 1 nM |
| COc1ccc(CN2CC3(CCN(CC(C)C)C(=O)C3)C2=O)cc1 (single isomer, unassigned) | < 1 nM |
| NC(=O)CN1CC2(CCNC(=O)C2)C1=O (single isomer, unassigned) | < 1 nM |
| COc1ccc(CN2CC3(CCNC(=S)C3)C2=S)cc1 (single isomer, unassigned) | < 1 nM |
| C[C@@H](O)[C@@H](C(=O)N(C)C)N1CC2(CCNC(=O)C2)C1=O (single isomer, unassigned) | < 1 nM |
| CC(C)CN1CC2(CCNC(=O)C2)C1=O (single isomer, unassigned) | < 1 nM |
| CN1CC2(CCNC(=O)C2)C1=O (single isomer, unassigned) | < 1 nM |
| CCN1CCC2(CC1=O)CN(Cc1ccccc1)C2=O (single isomer, unassigned) [CY] | < 1 nM |
| CC1C(O)C(=O)N(C)C12CN(Cc1ccccc1)C2=O (single isomer, unassigned) [DM] | ≥ 1 nM |
| CCN1CCC2(CC1=O)CN(Cc1ccccc1)C2=O (single isomer, unassigned) [CZ] | ≥ 1 nM |
| O=C1CC2(CCN1)CN(Cc1ccccc1)C2=O (single isomer, unassigned) | < 1 nM |
| CC1CC(=O)N(c2ccc(F)cc2)C12CN([C@H](C(N)=O)[C@@H](C)O)C2=O (single isomer, unassigned) [DK] | ≥ 1 nM |

----------
- Assay Remarks: IV pharmacokinetics
- Parameters: species or system Sprague Dawley rats
- Protocol Conditions: Sprague Dawley, in vivo, rat, 2 mg/kg, normal saline
Below, each entry is listed alongside its reported AUC(0-t).

| Compound | AUC(0-t) |
| --- | --- |
| CCN1CCC2(CC1=O)CN(Cc1ccc(OC)cc1)C2=O (single isomer, unassigned) | 772 ng·h/mL |
| COc1ccc(CN2CC3(CCNC(=O)C3)C2=O)cc1 (racemic) | 6300 ng·h/mL |
| C[C@@H](O)[C@@H](C(=O)NCc1ccccc1)N1CC2(CCNC(=O)C2)C1=O (single isomer, unassigned) | 1320 ng·h/mL |
| COc1ccc(CN2C[C@]3(CCNC(=O)C3)C2=O)cc1 | 3430 ng·h/mL |
| C[C@@H](O)[C@@H](C(=O)N(C)C)N1CC2(CCNC(=O)C2)C1=O (single isomer, unassigned) | 2130 ng·h/mL |
| COc1ccc(CN2CC3(CCN(C)C(=O)C3)C2=O)cc1 (single isomer, unassigned) | 1040 ng·h/mL |
| COc1ccc(CN2C[C@@]3(CCNC(=O)C3)C2=O)cc1 | 3370 ng·h/mL |
